# System: Yap1 mRNA
# experiment-description: Antisense inhibition of human Yap1 in SNU-449 cells by modified oligonucleotides, single dose (Example 5, RTS36584)
# Type: cell-based
# applied-conditions: Table 50; Yap1 mRNA remaining as percent of untreated control (UT), SNU-449 cells, single dose
# Protocol: Modified oligonucleotides with additional chemistry modifications were designed to target a Yap1 nucleic acid and were tested for their effect on Yap1 mRNA level in SNU-449 cells. […] After a treatment period of approximately 48 hours, RNA was isolated from the cells and Yap1 mRNA levels were measured by quantitative real-time RTPCR. […] Yap1 mRNA levels were normalized to total RNA content, as measured by RIBOGREEN®. […]
Strand notation (5' to 3'): a small letter for the sugar, then the base; units joined by * are phosphorothioate-linked, units joined directly phosphodiester-linked; [ ] holds rarer units or linkages, { } end groups; capitals alone tell only the bases. e = 2'-O-(2-methoxyethyl) (MOE); k = constrained ethyl (cEt); [5mC] = 5-methylcytosine; d = 2'-deoxy (DNA); m = 2'-O-methyl
Measured YAP1 (% UT) accompanies every entry in the list below.
The response must be a number in % UT with no trailing unit.

// below: answered substances
                                  substance  recorded_measurement
0  1198625 (kG*kA*k[5mC]*dT*dA*dA*dG*dT*dA*dA*dG*dG*kT*kT*kT*e[5mC]; antisense) [Compound 1198625]                    64
1  1197284 (kA*kG*kT*dA*mU*dG*dT*dG*dG*d[5mC]*dA*dA*dT*kA*kA*kT; antisense) [Compound 1197284]                    35
2  1198602 (antisense kA*kT*kA*dT*dT*dG*d[5mC]*dA*dA*dT*d[5mC]*dT*kG*kT*k[5mC]*eT) [Compound 1198602]                    29

# input Supply recorded YAP1 (% UT) for 1197244 (antisense kT*kT*kA*d[5mC]*mA*dT*dT*dA*dG*dG*dA*dA*d[5mC]*kA*kA*kG) [Compound 1197244] here.
# output 60

# input Supply recorded YAP1 (% UT) for 1198587 (antisense kG*kA*kT*dT*dT*dA*dG*dG*dA*dT*dG*d[5mC]*kA*kT*kG*eG) [Compound 1198587] here.
# output 41

# input Supply recorded YAP1 (% UT) for 1198613 (antisense kA*kA*kA*dG*dT*dG*dT*dA*dT*dG*dT*d[5mC]*kA*kG*kA*eA) [Compound 1198613] here.
# output 3

====

# System: Yap1 mRNA
# experiment-description: Dose-dependent inhibition of human Yap1 in SNU-449 cells (Example 9, RTS36584)
# Type: cell-based
# applied-conditions: 500.0 nM, free uptake, approximately 48 hours
Measured % UTC (Yap1 mRNA) accompanies every entry in the list below.
The response must be a number in % UTC with no trailing unit.

# input Give Yap1 mRNA % UTC (Yap1 mRNA) for the following substance: 1198728 (TATTAGAGTATGTGGC; modified gapmer, further chemistry not given here) [compound 1198728]
# output 9

====

Measured % UTC (Yap1 mRNA) accompanies every entry in the list below.
# Test system: Yap1 mRNA
# experiment-description: Dose-dependent inhibition of human Yap1 in SNU-449 cells (Example 9, RTS36584)
# Format: cell-based
# applied-conditions: 2000.00 nM, free uptake, approximately 48 hours
Strand notation (5' to 3'): a small letter for the sugar, then the base; units joined by * are phosphorothioate-linked, units joined directly phosphodiester-linked; [ ] holds rarer units or linkages, { } end groups; capitals alone tell only the bases. e = 2'-O-(2-methoxyethyl) (MOE); k = constrained ethyl (cEt); [5mC] = 5-methylcytosine; d = 2'-deoxy (DNA); m = 2'-O-methyl
The response must be a number in % UTC with no trailing unit.

// below: answered substances
In [3]: df
Out[3]:
                                  substance  recorded_measurement
0  1198960 (kA*kA*dG*dT*dG*dT*dA*dT*dG*dT*d[5mC]*kA*dG*kA*dA*kG; antisense) [compound 1198960]                     2
1  1198290 (kT*kG*kG*dA*dA*dA*dT*dT*dG*dT*d[5mC]*dT*k[5mC]*eA*kT*eG; antisense) [compound 1198290]                    10
2  1198831 (CACTTTTACATTAGGA; chemically modified gapmer, further chemistry not given here) [compound 1198831]                     4
3  1198874 (kA*kA*dG*dT*dG*dT*dA*dT*dG*dT*d[5mC]*kA*eG*kA*eA*kG) [compound 1198874]                     0
4  1198397 (k[5mC]*dA*d[5mC]*dT*dT*dT*dT*dA*d[5mC]*dA*dT*kT*eA*kG*eG*kA; antisense) [compound 1198397]                    14

# input Give Yap1 mRNA % UTC (Yap1 mRNA) for the following substance: 1095481 (kT*kG*dA*dG*dG*dT*dA*dT*dA*dA*d[5mC]*dT*kG*eG*kG*e[5mC]) [compound 1095481]
# output 8

# input Give Yap1 mRNA % UTC (Yap1 mRNA) for the following substance: 1198612 (kA*kA*kG*dT*dG*dT*dA*dT*dG*dT*d[5mC]*dA*kG*kA*kA*eG) [compound 1198612]
# output 0

# input Give Yap1 mRNA % UTC (Yap1 mRNA) for the following substance: 1198527 (kA*kA*dA*dG*dT*dG*dT*dA*dT*dG*dT*e[5mC]*kA*eG*kA*eA; antisense) [compound 1198527]
# output 3

# input Give Yap1 mRNA % UTC (Yap1 mRNA) for the following substance: 1198354 (kA*kA*kG*dT*dG*dT*dA*dT*dG*dT*d[5mC]*dA*kG*eA*kA*eG) [compound 1198354]
# output 1

# input Give Yap1 mRNA % UTC (Yap1 mRNA) for the following substance: 1200858 (kA*kA*kG*dT*dG*mU*dA*dT*dG*dT*d[5mC]*dA*dG*kA*kA*kG; antisense) [compound 1200858]
# output 4

====

Measured HGB accompanies every entry in the list below.
# experiment-description: Cynomolgus monkey tolerability, hematology (Example 34)
# Format: in vivo, cynomolgus monkeys
# applied-conditions: cynomolgus monkey, in vivo, sc, 35 mg/kg
Report as: number unit

substance	HGB
1197270 (TTAAAGTGTATGTCAG; cEt gapmer with 2'-OMe nucleoside, phosphorothioate, further chemistry not given here) [compound 1197270]	12 g/dL

# input Supply recorded HGB for 1198439 (AGTGTATGTCAGAAGA; sugar, 5-methylcytosine, phosphorothioate modifications, further chemistry not given here) [compound 1198439] here.
# output 14 g/dL

# input Supply recorded HGB for 1198440 (AAGTGTATGTCAGAAG; cEt, 2'-MOE, 5-methylcytosine, phosphorothioate modifications, further chemistry not given here) [compound 1198440] here.
# output 14 g/dL

====

# experiment-description: Tolerability in Balb/c mice, body and organ weights (Example 10)
# Type: in vivo
# applied-conditions: 50 mg/kg subcutaneously twice a week for four weeks, end of study
Strand notation (5' to 3'): a small letter for the sugar, then the base; units joined by * are phosphorothioate-linked, units joined directly phosphodiester-linked; [ ] holds rarer units or linkages, { } end groups; capitals alone tell only the bases. k = constrained ethyl (cEt); [5mC] = 5-methylcytosine; d = 2'-deoxy (DNA)
Measured Kidney weight accompanies every entry in the list below.
The response must be a number in g with no trailing unit.

>>> df
                                  substance  recorded_measurement
0  715487 (kA*kT*kT*dA*d[5mC]*dT*dT*d[5mC]*dA*dT*dA*dG*d[5mC]*kT*kT*kA) [compound 715487]                  0.36
1  715557 (kG*kG*kA*dA*dG*dT*dT*dA*dT*dT*d[5mC]*dA*dG*k[5mC]*kA*kG; antisense) [compound 715557]                  0.31
2  715582 (kG*kT*k[5mC]*dA*dA*dG*d[5mC]*d[5mC]*dT*dG*dT*d[5mC]*dT*kG*kG*kA; antisense) [compound 715582]                  0.38

# input Supply recorded Kidney weight for 715484 (kT*kA*k[5mC]*dT*d[5mC]*dT*dT*dT*dG*dG*dA*dA*dA*k[5mC]*k[5mC]*kA; antisense) [compound 715484] here.
# output 0.37

# input Supply recorded Kidney weight for 715491 (kA*kA*k[5mC]*d[5mC]*dA*dA*d[5mC]*dT*dA*dT*dT*dA*d[5mC]*kT*kT*k[5mC]) [compound 715491] here.
# output 0.32

# input Supply recorded Kidney weight for 715593 (kA*kT*kT*dT*d[5mC]*dT*dT*dT*dG*dG*d[5mC]*dA*dG*kA*kG*kA; antisense) [compound 715593] here.
# output 0.30
